Tested on: IL-17A-induced G-CSF production in human normal keratinocytes (NHK)
Assay Remarks: NHK Assay: IL-17A-induced G-CSF production in human normal keratinocytes
Assay type: cell-based
Experimental Context: IL-17A 5 ng/mL, 24 h, 5% FBS, simple average if tested more than once
pIC50: −log10 of the molar value.
Parameter Measured: pIC50

| Molecule | Endpoint Value |
| --- | --- |
| CC(CC(=O)N[C@@H](c1ccn2cc([C@@H](NC(=O)c3ncnn3CC3CC3)C3CCC(F)(F)CC3)nc2n1)C1CC1)C(F)(F)F (single isomer, unassigned) [Example 20] | 5.55 |
| Cn1nccc1C(=O)N[C@H](c1cn2ccc(C(NC(=O)CCC(F)(F)F)C3CC3)nc2n1)C1CCC(F)(F)CC1 (single isomer, unassigned) [Example 45] | 5.68 |
| O=C(CCC(F)(F)F)NC(c1ccn2cc([C@@H](NC(=O)c3cnn(CCC(F)(F)F)n3)C3CCC(F)(F)CC3)nc2n1)C1CC1 (single isomer, unassigned) [Example 41] | 5.60 |

* * *

Target Or System: IL-17A(FLAG-Tagged): IL-17RA(His-Tagged) (Homo sapiens, UniProt Q16552, K93Q)
Sequence (Q16552 with tags, fused parts or gaps K93Q): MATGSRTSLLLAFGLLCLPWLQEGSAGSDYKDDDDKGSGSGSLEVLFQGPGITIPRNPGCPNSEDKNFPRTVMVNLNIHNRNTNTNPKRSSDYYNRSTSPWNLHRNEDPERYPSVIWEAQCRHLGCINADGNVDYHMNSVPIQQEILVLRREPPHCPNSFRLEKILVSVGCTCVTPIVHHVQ
Assay Remarks: IL-17A(FLAG-Tagged): IL-17RA(His-Tagged) Binding Disruption Eu-HTRF Assay
Experimental Context: disruption of IL-17A/IL-17RA binding; simple average if tested more than once
Labelling field: enter true if recorded IC50 is less than 300 nM. Enter false if it equals or exceeds that cut-off.

| Compound | Target Or System | Classification |
| --- | --- | --- |
| CC(CC(=O)N[C@@H](c1ccn2cc([C@@H](NC(=O)[C@@H]3C[C@H]3C(F)(F)F)C3CCC(F)(F)CC3)nc2n1)C1CC1)C(F)(F)F (single isomer, unassigned) | IL-17A(FLAG-Tagged): IL-17RA(His-Tagged) (Homo sapiens, UniProt Q16552, K93Q) | false |
| CC(C)n1nccc1C(=O)N[C@H](c1cn2ccc(C(NC(=O)CCC(F)(F)F)C3CC3)nc2n1)C1CCC(F)(F)CC1 (single isomer, unassigned) [Example 46] | IL-17A(FLAG-Tagged): IL-17RA(His-Tagged) (Homo sapiens, UniProt Q16552, K93Q) | false |
| CC(C)n1ncnc1C(=O)N[C@H](c1cn2ccc([C@H](NC(=O)CC(C)C(F)(F)F)C3CC3)nc2n1)C1CCC(F)(F)CC1 (single isomer, unassigned) [Example 17] | IL-17A(FLAG-Tagged): IL-17RA(His-Tagged) (Homo sapiens, UniProt Q16552, K93Q) | true |
| CC(C)n1ncnc1C(=O)N[C@H](c1cn2ccc([C@H](NC(=O)CC3CC(F)(F)C3)C3CC3)nc2n1)C1CCC(F)(F)CC1 | IL-17A(FLAG-Tagged): IL-17RA(His-Tagged) (Homo sapiens, UniProt Q16552, K93Q) | false |
| O=C(CC1CC(F)(F)C1)N[C@H](c1ccn2cc([C@@H](NC(=O)c3ccnc(CC(F)(F)F)c3)C3CCC(F)(F)CC3)nc2n1)C1CC1 | IL-17A(FLAG-Tagged): IL-17RA(His-Tagged) (Homo sapiens, UniProt Q16552, K93Q) | false |

* * *

Target Or System: IL-17A(FLAG-Tagged): IL-17RA(His-Tagged) (Homo sapiens, UniProt Q16552, K93Q)
Assay Remarks: IL-17A(FLAG-Tagged): IL-17RA(His-Tagged) Binding Disruption Eu-HTRF Assay
Experimental Context: disruption of IL-17A/IL-17RA binding; simple average if tested more than once

| Compound | Target Or System | IC50 [nM] |
| --- | --- | --- |
| Cc1nonc1C(=O)N[C@H](c1cn2ccc([C@@H](NC(=O)CC3CC(F)(F)C3)C3CC3)nc2n1)C1CCC(F)(F)CC1 [Example 22] | IL-17A(FLAG-Tagged): IL-17RA(His-Tagged) (Homo sapiens, UniProt Q16552, K93Q) | 6200 |
| Cc1nonc1C(=O)N[C@H](c1cn2ccc([C@H](NC(=O)C[C@H](C)C(F)F)C3CC3)nc2n1)C1CCC(F)(F)CC1 [Example 60] | IL-17A(FLAG-Tagged): IL-17RA(His-Tagged) (Homo sapiens, UniProt Q16552, K93Q) | 380 |
| CC(C)n1ncnc1C(=O)N[C@H](c1cn2ccc([C@H](NC(=O)CC(C)C(F)(F)F)C3CC3)nc2n1)C1CCC(F)(F)CC1 (single isomer, unassigned) [Example 18] | IL-17A(FLAG-Tagged): IL-17RA(His-Tagged) (Homo sapiens, UniProt Q16552, K93Q) | 580 |
| O=C(CC1CC(F)(F)C1)N[C@H](c1ccn2cc([C@@H](NC(=O)c3ncnn3CC3CC3)C3CCC(F)(F)CC3)nc2n1)C1CC1 [Example 16] | IL-17A(FLAG-Tagged): IL-17RA(His-Tagged) (Homo sapiens, UniProt Q16552, K93Q) | 12000 |
| Cn1nccc1C(=O)N[C@H](c1cn2ccc(C(NC(=O)CCC(F)(F)F)C3CC3)nc2n1)C1CCC(F)(F)CC1 (single isomer, unassigned) [Example 44] | IL-17A(FLAG-Tagged): IL-17RA(His-Tagged) (Homo sapiens, UniProt Q16552, K93Q) | 220 |
| Cc1nonc1C(=O)N[C@H](c1cn2ccc([C@H](NC(=O)CC34CC(F)(C3)C4)C3CC3)nc2n1)C1CCC(F)(F)CC1 [Example 59] | IL-17A(FLAG-Tagged): IL-17RA(His-Tagged) (Homo sapiens, UniProt Q16552, K93Q) | 390 |
| CC(CC(=O)N[C@H](c1ccn2cc([C@@H](NC(=O)c3conc3CCC(F)(F)F)C3CCC(F)(F)CC3)nc2n1)C1CC1)C(F)(F)F (single isomer, unassigned) [Example 8] | IL-17A(FLAG-Tagged): IL-17RA(His-Tagged) (Homo sapiens, UniProt Q16552, K93Q) | 1100 |
| O=C(CCC(F)(F)F)NC(c1ccn2cc([C@@H](NC(=O)c3cnn(CCC(F)(F)F)n3)C3CCC(F)(F)CC3)nc2n1)C1CC1 (single isomer, unassigned) [Example 40] | IL-17A(FLAG-Tagged): IL-17RA(His-Tagged) (Homo sapiens, UniProt Q16552, K93Q) | 310 |
| O=C(CC1CC(F)(F)C1)N[C@@H](c1ccn2cc([C@@H](NC(=O)c3conc3C3CC3)C3CCC(F)(F)CC3)nc2n1)C1CC1 [Example 24] | IL-17A(FLAG-Tagged): IL-17RA(His-Tagged) (Homo sapiens, UniProt Q16552, K93Q) | 180 |
| O=C(CCC(F)(F)F)NC(c1ccn2cc([C@@H](NC(=O)c3ccn(CCC(F)(F)F)n3)C3CCC(F)(F)CC3)nc2n1)C1CC1 (single isomer, unassigned) [Example 43] | IL-17A(FLAG-Tagged): IL-17RA(His-Tagged) (Homo sapiens, UniProt Q16552, K93Q) | 5700 |
| CC(C)n1ncnc1C(=O)N[C@H](c1cn2ccc([C@@H](NC(=O)CC3CC(F)(F)C3)C3CC3)nc2n1)C1CCC(F)(F)CC1 [Example 14] | IL-17A(FLAG-Tagged): IL-17RA(His-Tagged) (Homo sapiens, UniProt Q16552, K93Q) | 17000 |
| CC(C)n1nccc1C(=O)N[C@H](c1cn2ccc(C(NC(=O)CCC(F)(F)F)C3CC3)nc2n1)C1CCC(F)(F)CC1 (single isomer, unassigned) [Example 47] | IL-17A(FLAG-Tagged): IL-17RA(His-Tagged) (Homo sapiens, UniProt Q16552, K93Q) | 410 |
| CC(CC(=O)N[C@H](c1ccn2cc([C@@H](NC(=O)c3ccnc(CC(F)(F)F)c3)C3CCC(F)(F)CC3)nc2n1)C1CC1)C(F)(F)F (single isomer, unassigned) [Example 4] | IL-17A(FLAG-Tagged): IL-17RA(His-Tagged) (Homo sapiens, UniProt Q16552, K93Q) | 1800 |
| Cc1conc1C(=O)N[C@H](c1cn2ccc([C@H](NC(=O)CC3CC3(F)F)C3CC3)nc2n1)C1CCC(F)(F)CC1 (single isomer, unassigned) [Example 53] | IL-17A(FLAG-Tagged): IL-17RA(His-Tagged) (Homo sapiens, UniProt Q16552, K93Q) | 490 |
| O=C(CCC(F)(F)F)N[C@H](c1ccn2cc([C@@H](NC(=O)c3conc3C3CC3)C3CCC(F)(F)CC3)nc2n1)C1CC1 [Example 37] | IL-17A(FLAG-Tagged): IL-17RA(His-Tagged) (Homo sapiens, UniProt Q16552, K93Q) | 1400 |
| Cc1nonc1C(=O)N[C@H](c1cn2ccc([C@H](NC(=O)CC3CC(F)(F)C3)C3CC3)nc2n1)C1CCC(F)(F)CC1 [Example 21] | IL-17A(FLAG-Tagged): IL-17RA(His-Tagged) (Homo sapiens, UniProt Q16552, K93Q) | 99 |
| O=C(CCC(F)(F)F)NC(c1ccn2cc([C@@H](NC(=O)c3cnn(CCC(F)(F)F)c3)C3CCC(F)(F)CC3)nc2n1)C1CC1 (single isomer, unassigned) [Example 49] | IL-17A(FLAG-Tagged): IL-17RA(His-Tagged) (Homo sapiens, UniProt Q16552, K93Q) | 500 |
| O=C(CC1CC(F)(F)C1)N[C@@H](c1ccn2cc([C@@H](NC(=O)[C@@H]3C[C@H]3C(F)(F)F)C3CCC(F)(F)CC3)nc2n1)C1CC1 (relative stereo) [Example 11] | IL-17A(FLAG-Tagged): IL-17RA(His-Tagged) (Homo sapiens, UniProt Q16552, K93Q) | 660 |
| Cc1nonc1C(=O)N[C@H](c1cn2ccc([C@H](NC(=O)CC3CC3(F)F)C3CC3)nc2n1)C1CCC(F)(F)CC1 (single isomer, unassigned) [Example 51] | IL-17A(FLAG-Tagged): IL-17RA(His-Tagged) (Homo sapiens, UniProt Q16552, K93Q) | 360 |
| Cc1c(C(=O)N[C@H](c2cn3ccc(C(NC(=O)CCC(F)(F)F)C4CC4)nc3n2)C2CCC(F)(F)CC2)cnn1CCC(F)(F)F (single isomer, unassigned) [Example 39] | IL-17A(FLAG-Tagged): IL-17RA(His-Tagged) (Homo sapiens, UniProt Q16552, K93Q) | 13000 |
| O=C(CC1CC1(F)F)N[C@@H](c1ccn2cc([C@@H](NC(=O)c3conc3C(F)(F)F)C3CCC(F)(F)CC3)nc2n1)C1CC1 (single isomer, unassigned) [Example 58] | IL-17A(FLAG-Tagged): IL-17RA(His-Tagged) (Homo sapiens, UniProt Q16552, K93Q) | 340 |
| O=C(CC1CC(F)(F)C1)N[C@H](c1ccn2cc([C@@H](NC(=O)c3conc3C3CC3)C3CCC(F)(F)CC3)nc2n1)C1CC1 [Example 27] | IL-17A(FLAG-Tagged): IL-17RA(His-Tagged) (Homo sapiens, UniProt Q16552, K93Q) | 3800 |
